# experimental-setup: in acetone, 283.15 K
readout-label: solubility (mole fraction)

N#CCNC(=O)c1cnccc1C(F)(F)F : 0.0359

----------
# experimental-setup: in n-butyl acetate, 288.15 K
readout-label: solubility (mole fraction)

N#CCNC(=O)c1cnccc1C(F)(F)F : 0.00572

----------
# experimental-setup: in n-butanol, 283.15 K
readout-label: solubility (mole fraction)

N#CCNC(=O)c1cnccc1C(F)(F)F : 0.00298

----------
# experimental-setup: in acetone, 293.15 K
readout-label: solubility (mole fraction)

N#CCNC(=O)c1cnccc1C(F)(F)F : 0.0464

----------
# experimental-setup: in isobutanol, 308.15 K
readout-label: solubility (mole fraction)

N#CCNC(=O)c1cnccc1C(F)(F)F : 0.00561

----------
# experimental-setup: in 1,4-dioxane, 308.15 K
readout-label: solubility (mole fraction)

N#CCNC(=O)c1cnccc1C(F)(F)F : 0.0295

----------
# experimental-setup: in n-butanol, 318.15 K
readout-label: solubility (mole fraction)

N#CCNC(=O)c1cnccc1C(F)(F)F : 0.0138

----------
# experimental-setup: in methanol, 308.15 K
readout-label: solubility (mole fraction)

N#CCNC(=O)c1cnccc1C(F)(F)F : 0.0241

Source: BigSolDB 2.1
